# system.under.test: BLK (human)
# procedure.details: radiometric filter-binding kinase assay, Kinase HotSpot
# applied.conditions: compound 0.5 µM; ATP 10 µM
residual activity by entry:
State just the number; it will be interpreted in %.

Sample records with residual activity:
[[record]]
smiles_input = "COc1cc2ncnc(Nc3ccc(OCc4ccccc4)cc3)c2cc1OC"
unit_spec = "%"
assay_value = 88.2

[[record]]
smiles_input = "Cc1cncc2cccc(S(=O)(=O)N3CCCN(C(=O)CN)C[C@H]3C)c12"
unit_spec = "%"
assay_value = 97.7

[[record]]
smiles_input = "CCCCc1c(-c2ccc(OC)cc2)[nH]c2nccnc12"
unit_spec = "%"
assay_value = 96.7

[[record]]
smiles_input = "COc1ccc(C(=O)Nc2sc3c(c2C(N)=O)CCCC3)cc1OC"
unit_spec = "%"
assay_value = 102

[[record]]
smiles_input = "N#C/C(=C\\c1ccc(O)c(O)c1)C(=O)NCc1ccccc1"
unit_spec = "%"
assay_value = 95.6

[[record]]
smiles_input = "COc1ccc(Cl)cc1NC(=O)Nc1cc(C)nc2ccccc12"
unit_spec = "%"
assay_value = 99.8


Returns the measured residual activity for the input molecule. Input: COc1cc(Nc2c(C#N)cnc3cc(OCCCN4CCN(C)CC4)c(OC)cc23)c(Cl)cc1Cl
20.7

Returns the measured residual activity for the input molecule. Input: CN(C)c1ccc(/C=C2\C(=O)Nc3ccccc32)cc1
99.2

Returns the measured residual activity for the input molecule. Input: CS(=O)(=O)CCNCc1ccc(-c2ccc3ncnc(Nc4ccc(OCc5cccc(F)c5)c(Cl)c4)c3c2)o1
95.9

Returns the measured residual activity for the input molecule. Input: CN(C)S(=O)(=O)c1ccc2c(c1)/C(=C/c1cc3c([nH]1)CCCC3)C(=O)N2
13.9
